assayed-target: T1, human MSLN-hFc protein (Acro, Cat. No. MSN-H5253) (human, UniProt Q13421 296-580)
T1 construct: the method names the coated protein as human MSLN-hFc (Acro); also called human MSLN full-length protein
T1 sequence (Q13421 other isoform, or with tags, fused parts or gaps limits assumed): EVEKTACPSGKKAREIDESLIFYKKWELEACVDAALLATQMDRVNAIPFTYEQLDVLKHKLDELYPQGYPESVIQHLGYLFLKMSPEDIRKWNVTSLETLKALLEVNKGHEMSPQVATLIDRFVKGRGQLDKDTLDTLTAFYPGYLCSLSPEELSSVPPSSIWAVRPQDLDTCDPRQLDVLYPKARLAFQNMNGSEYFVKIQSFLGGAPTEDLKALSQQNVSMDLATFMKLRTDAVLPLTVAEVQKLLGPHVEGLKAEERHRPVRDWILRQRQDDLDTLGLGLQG
experimental-details: ELISA on coated antigen, antibody 0.01 nM
parameter: OD450 (OD450)
API: value field is a number in OD450; no unit string.

[in] State, in one line, measured OD450 of F7.44.20-H4 (scFv, not shown: small tags and cut ends, also called S009-F7.44.20 humanized antibody VH1 + VL4) scFv: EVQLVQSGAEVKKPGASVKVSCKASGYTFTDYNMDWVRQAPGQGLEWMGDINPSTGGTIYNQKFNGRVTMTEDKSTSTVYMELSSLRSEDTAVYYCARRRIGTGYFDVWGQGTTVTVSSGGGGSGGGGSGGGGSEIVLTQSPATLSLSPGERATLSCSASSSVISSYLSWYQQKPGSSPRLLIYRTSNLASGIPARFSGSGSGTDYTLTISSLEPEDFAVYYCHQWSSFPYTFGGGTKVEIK
[out] 0.06

[in] State, in one line, measured OD450 of F7.44.20-H12 (scFv, not shown: small tags and cut ends, also called S009-F7.44.20 humanized antibody VH2 + VL4) scFv: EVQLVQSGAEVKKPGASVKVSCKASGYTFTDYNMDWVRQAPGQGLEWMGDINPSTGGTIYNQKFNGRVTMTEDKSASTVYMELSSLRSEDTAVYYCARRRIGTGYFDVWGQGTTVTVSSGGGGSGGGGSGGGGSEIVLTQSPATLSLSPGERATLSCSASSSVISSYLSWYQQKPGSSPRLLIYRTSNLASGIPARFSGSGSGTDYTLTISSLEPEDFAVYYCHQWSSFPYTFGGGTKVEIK
[out] 0.06

[in] State, in one line, measured OD450 of F7.44.20-H16 (scFv, not shown: small tags and cut ends, also called S009-F7.44.20 humanized antibody VH2a + VL4) scFv: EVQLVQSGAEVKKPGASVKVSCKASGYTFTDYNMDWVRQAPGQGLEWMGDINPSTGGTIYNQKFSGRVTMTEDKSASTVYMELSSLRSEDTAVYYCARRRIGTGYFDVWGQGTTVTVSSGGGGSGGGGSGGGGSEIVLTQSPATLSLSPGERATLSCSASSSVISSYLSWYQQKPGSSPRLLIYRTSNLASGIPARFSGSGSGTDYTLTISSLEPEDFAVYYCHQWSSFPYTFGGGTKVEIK
[out] 0.05

[in] State, in one line, measured OD450 of F7.44.20-H7 (scFv, not shown: small tags and cut ends, also called S009-F7.44.20 humanized antibody VH1a + VL3) scFv: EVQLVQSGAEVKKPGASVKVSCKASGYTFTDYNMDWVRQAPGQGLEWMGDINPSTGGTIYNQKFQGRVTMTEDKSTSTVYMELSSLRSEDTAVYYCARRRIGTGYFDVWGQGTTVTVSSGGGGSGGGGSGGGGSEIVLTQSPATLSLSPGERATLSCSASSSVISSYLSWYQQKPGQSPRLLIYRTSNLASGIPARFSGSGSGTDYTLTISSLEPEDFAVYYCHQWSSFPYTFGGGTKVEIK
[out] 0.06

[in] State, in one line, measured OD450 of F7.44.20-H11 (scFv, not shown: small tags and cut ends, also called S009-F7.44.20 humanized antibody VH2 + VL3) scFv: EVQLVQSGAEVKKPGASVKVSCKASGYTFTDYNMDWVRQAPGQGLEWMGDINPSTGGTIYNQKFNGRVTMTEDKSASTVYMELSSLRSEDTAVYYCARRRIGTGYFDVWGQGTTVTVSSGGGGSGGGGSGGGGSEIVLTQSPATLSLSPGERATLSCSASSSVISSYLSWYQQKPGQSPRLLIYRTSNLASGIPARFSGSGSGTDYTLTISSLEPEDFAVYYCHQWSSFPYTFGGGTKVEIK
[out] 0.06
